Could you label it 1 if measured intrinsic clearance, rat liver microsomes is 100 mL/min/kg or higher, and -1 otherwise?

Task: Hi team, for C=CC(=O)Nc1cccc(Oc2nc(Nc3ccc(N4CCN(C)CC4)cc3)nc3ccoc23)c1 , is the recorded intrinsic clearance, rat liver microsomes at or above 100 mL/min/kg?
Result: 1

Task: Hi team, for CC(C)c1nnc(CN2CCN(c3nccs3)CC2)o1 , is the recorded intrinsic clearance, rat liver microsomes at or above 100 mL/min/kg?
Result: 1

Task: Hi team, for Cc1cc(NCC2(c3ccncc3)CC2)ncn1 , is the recorded intrinsic clearance, rat liver microsomes at or above 100 mL/min/kg?
Result: 1

Task: Hi team, for O=C(Nc1ccccc1-n1ccnc1)c1ccc(F)cc1 , is the recorded intrinsic clearance, rat liver microsomes at or above 100 mL/min/kg?
Result: -1

Task: Hi team, for O=C(N[C@@H](COc1ccc2[nH]c(=O)[nH]c2c1)c1ccccc1)c1cccn(Cc2ccc(F)c(F)c2)c1=O , is the recorded intrinsic clearance, rat liver microsomes at or above 100 mL/min/kg?
Result: 1

Task: Hi team, for COc1ncc(-c2cccc(N(C)C)c2)c(OC)n1 , is the recorded intrinsic clearance, rat liver microsomes at or above 100 mL/min/kg?
Result: 1

Task: Hi team, for Cn1cc(-c2ccc(-c3cncc(Cl)c3N3CCC4(CCNC4=O)CC3)cc2)cn1 , is the recorded intrinsic clearance, rat liver microsomes at or above 100 mL/min/kg?
Result: 1

Task: Hi team, for CC(C)c1nnc(-c2ccc(-c3ccccc3)nc2)n1-c1cccc2nonc12 , is the recorded intrinsic clearance, rat liver microsomes at or above 100 mL/min/kg?
Result: 1

Task: Hi team, for Cc1nc(Nc2nccs2)cc(C2CN(c3ncccn3)C2)n1 , is the recorded intrinsic clearance, rat liver microsomes at or above 100 mL/min/kg?
Result: -1

Task: Hi team, for CCOC(=O)c1cccnc1-c1cccc2ccnn12 , is the recorded intrinsic clearance, rat liver microsomes at or above 100 mL/min/kg?
Result: -1

Task: Hi team, for O=C(Cc1cn2ccccc2n1)N1CCC(n2c(=O)[nH]c3ccccc32)CC1 , is the recorded intrinsic clearance, rat liver microsomes at or above 100 mL/min/kg?
Result: 1

Task: Hi team, for O=C(/C=C/c1ccc(Cl)cc1)N1CCC2(CC1)CN(Cc1ccc(Cl)c(Cl)c1)C(=O)O2 , is the recorded intrinsic clearance, rat liver microsomes at or above 100 mL/min/kg?
Result: 1

Task: Hi team, for O=C(Nc1ccc(F)cc1)c1cc(C2CC2)nn1-c1ccccc1 , is the recorded intrinsic clearance, rat liver microsomes at or above 100 mL/min/kg?
Result: -1

Task: Hi team, for O=c1[nH]c2ccccc2n1C1CCN(S(=O)(=O)Cc2ccccc2)CC1 , is the recorded intrinsic clearance, rat liver microsomes at or above 100 mL/min/kg?
Result: 1

Task: Hi team, for Fc1cc(-c2noc(C3CCN(C4CC4)CC3)n2)cc(F)c1F , is the recorded intrinsic clearance, rat liver microsomes at or above 100 mL/min/kg?
Result: 1

Task: Hi team, for c1ccc(C(c2ccccc2)c2noc(Cn3cnc(C4CC4)n3)n2)cc1 , is the recorded intrinsic clearance, rat liver microsomes at or above 100 mL/min/kg?
Result: 1

Task: Hi team, for Cc1ccc(-c2ccnc(N3C[C@@H](C)NC[C@@H]3C)n2)c(C)n1 , is the recorded intrinsic clearance, rat liver microsomes at or above 100 mL/min/kg?
Result: -1

Task: Hi team, for CNC(=O)CN(C)c1cccc(F)c1C#N , is the recorded intrinsic clearance, rat liver microsomes at or above 100 mL/min/kg?
Result: -1

Task: Hi team, for Clc1cccc(CNc2nc(C3CC3)no2)c1 , is the recorded intrinsic clearance, rat liver microsomes at or above 100 mL/min/kg?
Result: 1

Task: Hi team, for COc1cc2c(c(OC)c1OC)CCNC(=O)C2 , is the recorded intrinsic clearance, rat liver microsomes at or above 100 mL/min/kg?
Result: -1

Task: Hi team, for COCC1(CNC(=O)c2ccc(-n3cccn3)cc2)CCC1 , is the recorded intrinsic clearance, rat liver microsomes at or above 100 mL/min/kg?
Result: 1

Task: Hi team, for COc1ncccc1CNc1ncnc2c1cnn2C , is the recorded intrinsic clearance, rat liver microsomes at or above 100 mL/min/kg?
Result: -1

Task: Hi team, for CC(C)(C)c1cc(NS(=O)(=O)c2cccc(F)c2)cc(C(C)(C)C)c1 , is the recorded intrinsic clearance, rat liver microsomes at or above 100 mL/min/kg?
Result: 1

Task: Hi team, for CCc1oc2c(-n3cnnc3)cccc2c1C , is the recorded intrinsic clearance, rat liver microsomes at or above 100 mL/min/kg?
Result: 1

Task: Hi team, for Cc1ccc(-n2nc(NCc3cnn(C)c3)cc2C)cc1 , is the recorded intrinsic clearance, rat liver microsomes at or above 100 mL/min/kg?
Result: -1

Task: Hi team, for Cc1nnc(N2CCCSCC2)c(C#N)c1C , is the recorded intrinsic clearance, rat liver microsomes at or above 100 mL/min/kg?
Result: 1

Task: Hi team, for CC(=O)N1CCN(c2nc(C(F)(F)F)nc3sc(C)c(C)c23)CC1 , is the recorded intrinsic clearance, rat liver microsomes at or above 100 mL/min/kg?
Result: 1

Task: Hi team, for Cc1nccn1CCCN1C(=O)SC(C)(C)C1=O , is the recorded intrinsic clearance, rat liver microsomes at or above 100 mL/min/kg?
Result: -1

Task: Hi team, for CCn1c(CN2CCCCCC2)nc2ccccc2c1=O , is the recorded intrinsic clearance, rat liver microsomes at or above 100 mL/min/kg?
Result: 1

Task: Hi team, for Cc1nc(C(=O)NCC(=O)O)c(O)c2ccc(Oc3ccccc3)cc12 , is the recorded intrinsic clearance, rat liver microsomes at or above 100 mL/min/kg?
Result: -1

Task: Hi team, for CCOc1ncccc1-c1nc(C)cc(NC)n1 , is the recorded intrinsic clearance, rat liver microsomes at or above 100 mL/min/kg?
Result: -1

Task: Hi team, for CCCCn1nc(-c2ccc(C)o2)nc1CNC , is the recorded intrinsic clearance, rat liver microsomes at or above 100 mL/min/kg?
Result: 1

Task: Hi team, for N#Cc1cc(CN2CCC(Nc3ncnc4sc(Cl)cc34)CC2)ccc1F , is the recorded intrinsic clearance, rat liver microsomes at or above 100 mL/min/kg?
Result: 1

Task: Hi team, for CCCn1cnnc1Cn1ccnc1-c1ccc2occc2c1 , is the recorded intrinsic clearance, rat liver microsomes at or above 100 mL/min/kg?
Result: -1

Task: Hi team, for N#CC[C@H](C1CCCC1)n1cc(-c2ncnc3[nH]ccc23)cn1 , is the recorded intrinsic clearance, rat liver microsomes at or above 100 mL/min/kg?
Result: 1

Task: Hi team, for Cc1ccnc(NC(=O)c2ccnc(C)n2)c1 , is the recorded intrinsic clearance, rat liver microsomes at or above 100 mL/min/kg?
Result: 1

Task: Hi team, for O=C(c1cnc(-c2ccccc2)s1)N1CCOC2(CCCC2)C1 , is the recorded intrinsic clearance, rat liver microsomes at or above 100 mL/min/kg?
Result: 1

Task: Hi team, for O=C(NCc1ccc(-n2cncn2)nc1)c1csc2c1CCCC2 , is the recorded intrinsic clearance, rat liver microsomes at or above 100 mL/min/kg?
Result: 1

Task: Hi team, for Cc1nc(N2CCOc3ccccc3C2)c2cnn(C)c2n1 , is the recorded intrinsic clearance, rat liver microsomes at or above 100 mL/min/kg?
Result: 1

Task: Hi team, for CNc1nc(C2CCNCC2)nc2c1CN(C)CC2 , is the recorded intrinsic clearance, rat liver microsomes at or above 100 mL/min/kg?
Result: -1

Task: Hi team, for CC(C)CC(=O)Nc1cccnc1N(C)C , is the recorded intrinsic clearance, rat liver microsomes at or above 100 mL/min/kg?
Result: -1

Task: Hi team, for C=CC(=O)Nc1cccc(Nc2nc(Nc3ccc(OCCOC)cc3)ncc2F)c1 , is the recorded intrinsic clearance, rat liver microsomes at or above 100 mL/min/kg?
Result: 1

Task: Hi team, for Cc1ccc(NS(C)(=O)=O)c(C(=O)N(C)c2ccc3ccccc3c2)c1 , is the recorded intrinsic clearance, rat liver microsomes at or above 100 mL/min/kg?
Result: 1

Task: Hi team, for O=C(CN1CCCN(c2ccc(C(F)(F)F)cn2)CC1)Nc1cccc(F)c1 , is the recorded intrinsic clearance, rat liver microsomes at or above 100 mL/min/kg?
Result: 1

Task: Hi team, for CS(=O)(=O)CCNc1ccc2ccc(F)cc2n1 , is the recorded intrinsic clearance, rat liver microsomes at or above 100 mL/min/kg?
Result: -1

Task: Hi team, for CN1C(=O)c2ccc(C(=O)N(CC3CCCCC3)C3CC3)cc2C1=O , is the recorded intrinsic clearance, rat liver microsomes at or above 100 mL/min/kg?
Result: 1

###

- Test Context: pH 6.8
Could you label it criterion met if measured aqueous solubility is 50 µg/mL or higher, and criterion not met otherwise?

Task: Hi team, for O=C(CN1CCCN(c2ccc(C(F)(F)F)cn2)CC1)Nc1cccc(F)c1 , is the recorded aqueous solubility at or above 50 µg/mL?
Result: criterion not met

Task: Hi team, for Cc1cccc(OC2CCN(CC(N)=O)CC2)c1 , is the recorded aqueous solubility at or above 50 µg/mL?
Result: criterion met

Task: Hi team, for COc1ccc([C@H]2CN(C(C)=O)[C@@H]3CCCN(Cc4cccc(F)c4)[C@H]23)cc1 , is the recorded aqueous solubility at or above 50 µg/mL?
Result: criterion not met

Task: Hi team, for O=C(NC1CCCCC1)C1CCN(c2ccncc2Cl)CC1 , is the recorded aqueous solubility at or above 50 µg/mL?
Result: criterion not met

Task: Hi team, for Cc1nc(-c2ccccc2)ccc1C(=O)N1CCCS1(=O)=O , is the recorded aqueous solubility at or above 50 µg/mL?
Result: criterion met

Task: Hi team, for CC(=O)NCC1CCN(C(=O)c2ccc(C)nc2)CC1 , is the recorded aqueous solubility at or above 50 µg/mL?
Result: criterion met

Task: Hi team, for O=C(NCc1ccc(F)cc1)c1ccc(-n2ccnc2)nc1 , is the recorded aqueous solubility at or above 50 µg/mL?
Result: criterion met

Task: Hi team, for CN(C)C(=O)CN1CCN(C(=O)c2ccc3ccccc3c2O)CC1 , is the recorded aqueous solubility at or above 50 µg/mL?
Result: criterion not met

Task: Hi team, for c1cncc(-c2ccnn2CN2CCOCC2)c1 , is the recorded aqueous solubility at or above 50 µg/mL?
Result: criterion not met

Task: Hi team, for O[C@@H]1C[C@@H](c2nc(-c3cccnc3)no2)N(CCCc2ccccc2)C1 , is the recorded aqueous solubility at or above 50 µg/mL?
Result: criterion not met

Task: Hi team, for CC(C)c1noc(CN(C)C2CCCC2)n1 , is the recorded aqueous solubility at or above 50 µg/mL?
Result: criterion not met

Task: Hi team, for Nc1cnn(CC(=O)Nc2ccc(F)cc2)c1 , is the recorded aqueous solubility at or above 50 µg/mL?
Result: criterion met

meta.source: the Biogen ADME set (Fang et al. 2023)
